Read-out record for Thromboxane A2 receptor (Homo sapiens): AC50

compound	endpoint_result
CCN1CCC[C@H]1CNC(=O)c1cc(S(N)(=O)=O)ccc1OC [LEVOSULPIRIDE]	> 30 µM
NC[C@H]1CC[C@H](C(=O)O)CC1	> 10 µM
CC1=CC(=O)c2ccccc2C1=O	> 10 µM
CC(C)NCC(O)COc1ccc(COCCOC(C)C)cc1 (stereo not drawn)	> 30 µM
CC(C)(Oc1ccc(C2CC2(Cl)Cl)cc1)C(=O)O (stereo not drawn) [CIPROFIBRATE]	> 30 µM

stdin: Request: AC50, test system Thromboxane A2 receptor (Homo sapiens), entry `CC/C=C\C/C=C\C/C=C\CCCCCCCC(=O)O`; also: assay procedure not described here
stdout: > 30 µM

stdin: Look up AC50 with Thromboxane A2 receptor (Homo sapiens) for this compound: `COC(=O)N[C@H](C(=O)N[C@@H](Cc1ccccc1)[C@@H](O)CN(Cc1ccc(-c2ccccn2)cc1)NC(=O)[C@@H](NC(=O)OC)C(C)(C)C)C(C)(C)C`
Sequence (P21731 whole entry): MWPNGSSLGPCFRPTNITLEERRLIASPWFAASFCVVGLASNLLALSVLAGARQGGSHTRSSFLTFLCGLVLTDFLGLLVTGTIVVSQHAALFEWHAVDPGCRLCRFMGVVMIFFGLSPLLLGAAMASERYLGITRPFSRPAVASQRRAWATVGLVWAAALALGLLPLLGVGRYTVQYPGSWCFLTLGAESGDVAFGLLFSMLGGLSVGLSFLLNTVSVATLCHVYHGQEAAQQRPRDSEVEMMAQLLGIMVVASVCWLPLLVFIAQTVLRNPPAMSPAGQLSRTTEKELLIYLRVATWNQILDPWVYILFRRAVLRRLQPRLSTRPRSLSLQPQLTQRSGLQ
stdout: > 30 µM

stdin: Notebook entry, Thromboxane A2 receptor (Homo sapiens) assay: AC50 of CC(C)[N+](C)(CCC(C(N)=O)(c1ccccc1)c1ccccc1)C(C)C [ISOPROPAMIDE] = ?
stdout: > 10 µM

stdin: Give AC50 (Thromboxane A2 receptor (Homo sapiens)) of the following compound: `C#C[C@]1(O)CC[C@H]2[C@@H]3CCC4=CCCC[C@@H]4[C@H]3CC[C@@]21C`
stdout: > 30 µM

stdin: What is its AC50 for Thromboxane A2 receptor (Homo sapiens)? Entry: `O=C(CCCCCCC(=O)Nc1ccccc1)NO`
stdout: > 30 µM

stdin: Form field - read-out: AC50; system: Thromboxane A2 receptor (Homo sapiens); submitted item: CN(CCOc1ccc(NS(C)(=O)=O)cc1)CCc1ccc(NS(C)(=O)=O)cc1 [DOFETILIDE]; also: assay procedure not described here
stdout: > 30 µM

stdin: Notebook: pull reported AC50 for Thromboxane A2 receptor (Homo sapiens), entry `NC(N)=Nc1nc(CSCCC(N)=NS(N)(=O)=O)cs1`
stdout: > 30 µM

stdin: What AC50 appears in the records for this compound with Thromboxane A2 receptor (Homo sapiens)? COC(=O)C1=C(C)NC(C)=C(C(=O)OC(C)C)C1c1cccc2nonc12 (stereo not drawn)
stdout: 20.1 µM

stdin: Quick check: AC50 on Thromboxane A2 receptor (Homo sapiens), item `CC[C@]1(O)C[C@@H]2CN(CCc3c([nH]c4ccccc34)[C@@](C(=O)OC)(c3cc4c(cc3OC)N(C)[C@H]3[C@@](O)(C(N)=O)[C@H](O)[C@]5(CC)C=CCN6CC[C@]43[C@@H]65)C2)C1` ?
stdout: > 30 µM

stdin: Item: NS(=O)(=O)c1cc(-c2nnn[nH]2)c(NCc2cccs2)cc1Cl [AZOSEMIDE] Test system: Thromboxane A2 receptor (Homo sapiens) Read-out: AC50 Value: ?; also: assay procedure not described here
stdout: > 30 µM

stdin: Lab request: please report AC50 under test system Thromboxane A2 receptor (Homo sapiens) for Cc1cc2c(OCC(CNC(C)(C)C)OC(=O)c3ccccc3)cccc2[nH]1 (stereo not drawn); also: assay procedure not described here
stdout: > 30 µM

stdin: Param readout = AC50; param system = Thromboxane A2 receptor (Homo sapiens); param query = `CN(C/C=C/c1ccccc1)Cc1cccc2ccccc12` ; response: value; also: assay procedure not described here
stdout: > 30 µM

stdin: Missing value: AC50, Thromboxane A2 receptor (Homo sapiens), entry `COC(=O)N[C@H](C(=O)N1CCC[C@H]1c1nc(-c2ccc(-c3ccc(-c4c[nH]c([C@@H]5CCCN5C(=O)[C@@H](NC(=O)OC)C(C)C)n4)cc3)cc2)c[nH]1)C(C)C` . Fill in?
stdout: > 30 µM

stdin: Give AC50 (Thromboxane A2 receptor (Homo sapiens)) of the following compound: `CCc1nn(CCCN2CCN(c3cccc(Cl)c3)CC2)c(=O)n1CCOc1ccccc1`
stdout: 23.9 µM
